For each of the compounds below, state its melting point.
Write down the numeric answer in °C and omit the unit.

Incoming: Can you look up the measured melting point of Brc1ccc(-c2ccc(Br)cc2)cc1 for me?
Outgoing: 167

Incoming: Request the reported melting point associated with CCCCC1C(=O)NC(=O)N(C2CCCCC2)C1=O (stereo unspecified)
Outgoing: 84

Incoming: For the compound shown here, CCCSc1ncccc1C(=O)Cl , give the reported melting point.
Outgoing: 43.4

Incoming: So what's the measured melting point for this one? O=C(Cc1ccccc1)OCc1c([N+](=O)[O-])cccc1[N+](=O)[O-]
Outgoing: 90

---

Could you please report measured melting point for the items listed next?

Incoming: Given the entry c1ccc2c(c1)OCCOCCOCCOCCOc1ccccc1OCCOCCOCCOCCO2 , report its measured melting point.
Outgoing: 104 to 108 °C

Incoming: Request the reported melting point associated with O=C(Nc1cc(O)cc(C(=O)O)c1)OCC1c2ccccc2-c2ccccc21
Outgoing: 234 to 236 °C

Incoming: Endpoint output: melting point of BrCc1ccc(-n2cccn2)cc1 . Value?
Outgoing: 81 to 83 °C

Incoming: Return reported melting point; argument: Nc1oncc1-c1ccccn1
Outgoing: 133 to 136 °C

Incoming: Look up melting point: CCOC(=O)c1cc(C)nc(Cl)c1C#N
Outgoing: 58 to 60 °C

Incoming: If you can, please state the reported melting point value of CN(C)c1ccc(C=CC#N)cc1 .
Outgoing: 165 to 168 °C

Incoming: What melting point value was documented for this compound, NNC(=O)C(F)(F)F ?
Outgoing: 111 to 115 °C

Incoming: Which melting point is reported for this compound? BrCC(CBr)=C(CBr)CBr
Outgoing: 135 to 145 °C

Incoming: Query (compound): O=Cc1ccc(OCc2c(F)cccc2Cl)cc1 ; field requested: melting point
Outgoing: 74 to 78 °C

Incoming: Return reported melting point; argument: O=C(O)c1cc(F)c(Cl)nc1Cl
Outgoing: 154 to 155 °C

Incoming: Any idea what melting point was measured for COC(=O)c1sccc1-c1ccc(C=O)o1 ?
Outgoing: 117 to 118 °C

Incoming: Which melting point is listed for O=C(Cl)c1scc2c1OCCO2 ?
Outgoing: 75 to 76 °C

Incoming: Give its melting point value. Item: NC(=S)Nc1ccc(F)c(F)c1F
Outgoing: 162 to 165 °C

Incoming: So what's the measured melting point for this one? CC(=O)N1CCc2cc(S(=O)(=O)Cl)ccc21
Outgoing: 172 to 174 °C

Incoming: Given the entry CC(CC(=O)c1ccc(Cl)cc1)C(=O)O (stereo not given) , report its measured melting point.
Outgoing: 137 to 139 °C

Incoming: Query: melting point; subject: O=C(CBr)c1cccc(F)c1
Outgoing: 34 to 35 °C

Incoming: Find the recorded melting point belonging to COc1cc2c(cc1OC)C(C)=NCC2 and report it.
Outgoing: 103 to 106 °C

Incoming: Entry Cc1ccc(NC(N)=S)cc1 : reported melting point = ?
Outgoing: 186 to 188 °C

Incoming: Data request, read-out melting point, for C[C@H](O)c1ccccc1Br
Outgoing: 56 to 58 °C

Incoming: Record request: melting point value, item Cc1nc(C(=O)O)c(C)o1
Outgoing: 232 to 233 °C

---

Classify by measured melting point: rule met if it is equal to or exceeds 200 °C, rule not met if it is smaller.

Incoming: Is reported melting point greater than or equal to 200 °C here: COP(=O)(OC)OC
Outgoing: rule not met

Incoming: Has CN(C)c1ccc(N=C=O)cc1 a recorded melting point greater than or equal to 200 °C?
Outgoing: rule not met

Incoming: Assess whether reported melting point for CCCCC=CCCC=CCCCCCCOC(C)=O sits at 200 °C or higher.
Outgoing: rule not met

Incoming: Is the recorded value of melting point equal to or greater than 200 °C for this compound? O=[N+]([O-])c1ncc[nH]1
Outgoing: rule met

Incoming: // inclusive: melting point at least 200 °C? input: CCOc1cc2c(cc1OC)CCNC2CC(C)C (centres undefined)
Outgoing: rule not met

---

ATTRIBUTE MEASURED: melting point

Incoming: What value of melting point has been recorded for this entry: Cc1ccc(S(=O)(=O)n2cc(C=O)c3ccccc32)cc1
Outgoing: 138 to 140 °C

Incoming: # lookup: melting point of NC(=S)c1ccc(-c2ccccn2)s1
Outgoing: 198 to 200 °C

Incoming: Using the record for CCOC(=O)c1sc(SC)nc1NC(=O)Nc1ccc(Cl)c(Cl)c1 , report its melting point.
Outgoing: 158 to 162 °C

Incoming: What does the record list as melting point for COC(=O)c1cnc(SC)n1C ?
Outgoing: 53 to 55 °C

Incoming: Return reported melting point; argument: CC(C)(C)OC(=O)C(C)(C)Sc1nnc(N)s1
Outgoing: 175 to 176 °C

Incoming: melting point for Brc1nncs1 ?
Outgoing: 70 to 73 °C

Incoming: Entry CCOC(=O)c1cnc(C(F)(F)F)nc1Cl : reported melting point = ?
Outgoing: 36 to 37 °C

Incoming: Fill in: melting point of Cc1cc(C(F)(F)F)cc(NN)n1 is ___
Outgoing: 79 to 81 °C

Incoming: Can you look up the measured melting point of Nc1ccccc1-n1ccnc1 for me?
Outgoing: 106 to 107 °C

Incoming: Reported melting point, molecule O=Cc1cc(Cl)cc(C=O)c1O : ____
Outgoing: 119 to 125 °C

Incoming: Look up melting point for this molecule: OCCN1CCN(c2nccc(C(F)(F)F)n2)CC1
Outgoing: 70 to 71 °C

Incoming: Look up melting point for this molecule: O=C(OC1OC(=O)c2ccccc21)c1ccccc1 (stereo not drawn)
Outgoing: 133 to 135 °C

Incoming: Look up melting point for this molecule: COc1ccc2c(c1)CCc1c-2[nH]c2ccc(OC)cc12
Outgoing: 194 to 196 °C

Incoming: Endpoint output: melting point of COC(=O)c1ccc(CN2CCN(C(=O)OC(C)(C)C)CC2)cc1 . Value?
Outgoing: 78 to 80 °C

Incoming: Look up melting point for this molecule: O=Cc1cc(C(=O)O)ccc1F
Outgoing: 152 to 153 °C

Incoming: Which melting point value belongs to CCOC(=O)C(C#N)=NO ?
Outgoing: 130 °C

Incoming: Given the entry CCOC=C(C#N)S(=O)(=O)c1ccc2ccccc2c1 , report its measured melting point.
Outgoing: 90 to 92.5 °C

Incoming: Bench note: what melting point did CC(=O)CCc1cc2c(cc1N=Nc1ccccc1C(=O)O)CCC(C)N2 (stereo not drawn) show?
Outgoing: 157 °C

Incoming: melting point for CCCCOc1c(-c2nnc(-c3ccc(Cl)cc3)o2)sc(-c2nnc(-c3ccc(Cl)cc3)o2)c1OCCCC ?
Outgoing: 178 °C

Incoming: Given the molecule CCOP(=O)(OCC)OC(=CCl)c1ccc(Cl)cc1Cl , what is its reported melting point?
Outgoing: -20 °C

Incoming: For the molecule shown here, COc1cccc(OC)c1SC , give the reported melting point.
Outgoing: 79 to 80 °C

Incoming: For Cc1nc(-c2ccc(Cl)cc2)sc1C(=O)Cl , what is its reported melting point?
Outgoing: 180 to 183 °C

Incoming: Record request: melting point value, item Cn1c(=O)c(C2=NNC(=O)C2=Cc2ccc3c(c2)OCO3)c(O)c2ccccc21
Outgoing: 265 °C

---

ATTRIBUTE MEASURED: melting point

Incoming: Which melting point value is on record for NC(=NO)c1ccc(Cl)cc1 ?
Outgoing: 131 to 134 °C

Incoming: Any idea what its melting point is? The compound is CN1CCCN(C)CCN(C)CCCN(C)CC1
Outgoing: 41 to 43 °C

Incoming: Using the record for CCOC(=O)c1c(C)oc(NC(=O)Nc2ccccc2)c1C(=O)OCC , report its melting point.
Outgoing: 110 to 112 °C

Incoming: Query (compound): Cc1noc(C)c1CO ; field requested: melting point
Outgoing: 76 to 77 °C

Incoming: Requested read-out: melting point. Entry: CC(=O)CCc1oc2c(Br)cc(Br)cc2c1-c1ccc(C)o1
Outgoing: 107 to 108 °C

Incoming: Give its melting point value. Item: CCOC(=O)c1[nH]c(C)c(C(C)=O)c1C
Outgoing: 146 to 147 °C

---

Could you please report measured melting point for the items listed next?

Incoming: Reported melting point for Cn1c(S)nnc1CNC(=O)OC(C)(C)C : what is it?
Outgoing: 168 to 169 °C

Incoming: Request the reported melting point associated with O=C(O)c1cc(F)c(Cl)cc1Cl
Outgoing: 141 to 144 °C

Incoming: What does the record list as melting point for CC(=O)c1sc(-c2ccc(Cl)cc2)cc1N ?
Outgoing: 138 to 140 °C

Incoming: Need melting point, item CC1(C)C2CCC13CS(=O)(=O)N[C@H]3C2 (some centres not stated)
Outgoing: 181 to 185 °C

Incoming: Give its melting point value. Item: O=C1OC(CO)C(O)C1O (configuration not stated)
Outgoing: 83 to 85 °C

Incoming: # get_value(readout='melting point', item= C[N+](C)(C)CC(O)CC(=O)[O-] (configuration not stated) )
Outgoing: 208 to 212 °C

Incoming: Need melting point, item Nc1ccc([N+](=O)[O-])c(C(=O)O)c1
Outgoing: 234 to 242 °C
